molecular target: human ATGL (Homo sapiens, UniProt Q96AD5); construct: made in house; host or cells: Expi cells (lysate, not purified); test: TG hydrolase activity, Expi cell lysates expressing human ATGL + CGI-58, radiolabelled triolein; assay type: biochemical; details: Example 237; read-out: Inhibition of human ATGL − IC50
Sequence (Q96AD5 whole entry): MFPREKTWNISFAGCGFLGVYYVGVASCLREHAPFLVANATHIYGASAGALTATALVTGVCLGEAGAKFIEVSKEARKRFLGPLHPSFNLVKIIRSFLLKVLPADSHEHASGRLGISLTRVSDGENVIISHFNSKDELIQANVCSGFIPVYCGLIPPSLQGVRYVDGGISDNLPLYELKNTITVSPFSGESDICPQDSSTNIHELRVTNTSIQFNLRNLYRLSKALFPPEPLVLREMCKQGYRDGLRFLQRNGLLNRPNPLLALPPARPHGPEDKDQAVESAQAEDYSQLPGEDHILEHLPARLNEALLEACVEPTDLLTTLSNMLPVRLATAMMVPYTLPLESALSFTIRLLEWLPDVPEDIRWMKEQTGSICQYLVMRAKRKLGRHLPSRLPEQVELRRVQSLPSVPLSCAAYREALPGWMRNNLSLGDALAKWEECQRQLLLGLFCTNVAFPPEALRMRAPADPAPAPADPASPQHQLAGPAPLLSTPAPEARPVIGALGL
readout type: log10 IC50 (log10 of the value in µM)
# values: log10(IC50), units µM

Query :: May I ask what log10 IC50 has been recorded for CCOC(=O)c1csc(-c2ccc(N(C)C)cc2)n1 ?
Result :: 1.40

Query :: Then CC(C)OC(=O)c1cccc(CCc2ccccc2)n1 ?
Result :: 1.70

Query :: Then CCOC(=O)c1csc(-c2ccc(OC(C)C)cc2)n1 ?
Result :: 0.70

Query :: Then CCS(=O)(=O)c1ccc(-c2cccc(C(=O)OC(C)C)n2)cc1 ?
Result :: 1.00

Query :: Then CCOC(=O)c1cccc(-c2ccc(-c3cccnc3)cc2)n1 ?
Result :: 1.30

Query :: Then CCCC(C)OC(=O)c1csc(-c2ccc(OCC)cc2)n1 (stereo not drawn) ?
Result :: 0.48

Query :: Then CCCCc1ccc(-c2cccc(C(=O)OC(C)C)n2)cc1 ?
Result :: 0.30

Query :: Then CCOC(=O)c1csc(-c2ccc(SC)cc2)n1 ?
Result :: 1.08

Query :: Then CCCOC(=O)c1cccc(-c2ccc(OCC)cc2)n1 ?
Result :: 1.08

Query :: Then CCOc1ccc(-c2nc(C(=O)OC(C)(C)C)c(C(=O)C3CC3)s2)cc1 ?
Result :: 1.40

Query :: Then CCOc1ccc(-c2nc(C(=O)OC3CC3)cs2)cc1 ?
Result :: 0.40

Query :: Then CCCCOc1ccc(-c2nc(C(=O)OCC)cs2)cc1 ?
Result :: 1.00

Query :: Then CCOC(=O)c1nc(-c2ccc(OCC)cc2)sc1OC ?
Result :: 0.70

Query :: Then CCOC(=O)c1cccc(-c2ccc(OCCOC)cc2)n1 ?
Result :: 1.00

Query :: Then CCOc1ccc(-c2nc(C(=O)OCc3cccs3)cs2)cc1 ?
Result :: 1.00

Query :: Then CCOc1ccc(-c2cccc(C(=O)OC(C)CC)n2)cc1 (stereo not drawn) ?
Result :: 0.90

Query :: Then CCOc1ccc(-c2cccc(C(=O)OC(C)(C)C)n2)cc1 ?
Result :: 1.08

Query :: Then CC(C)OC(=O)c1cccc(-c2ccc(F)cc2)n1 ?
Result :: 0.90

Query :: Then CCOC(=O)c1ccc(-c2cccc(C(=O)OC(C)C)n2)cc1 ?
Result :: 0.78

Query :: Then CCOC(=O)c1cccc(-c2ccc(C(C)OC)cc2)n1 (stereo not drawn) ?
Result :: 1.00

Query :: Then C=CCOC(=O)c1csc(-c2ccc(OCC)cc2)n1 ?
Result :: 0.48

Query :: Then CCOc1ccc(-c2nc(C(=O)OCc3ccncc3)cs2)cc1 ?
Result :: 1.30

Query :: Then CCOc1ccc(-c2nc(C(=O)OCC(F)(F)F)cs2)cc1 ?
Result :: 1.08

Query :: Then CCOc1ccc(-c2nc(C(=O)O[C@H]3CCC[C@H]3C)cs2)cc1 ?
Result :: 1.18

Query :: Then C#CC(C)OC(=O)c1cccc(-c2ccc(CCC)cc2)n1 (stereo not drawn) ?
Result :: 0.48

Query :: Then CCOC(=O)c1csc(-c2ccc(SC(C)C)cc2)n1 ?
Result :: 1.30

Query :: Then C#C[C@@H](C)OC(=O)c1cccc(-c2ccc(CCC)cc2)n1 ?
Result :: 0.30

Query :: Then COc1cc(C(=O)OC(C)C)nc(-c2ccc(-c3cccnc3)cc2)c1 ?
Result :: 0.78

Query :: Then CC(C)OC(=O)c1cccc(-c2ccc(OC3CCCCO3)cc2)n1 (stereo not drawn) ?
Result :: 0.90

Query :: Then CCOc1ccc(-c2nc(C(=O)OC(C)(C)C)c(C(C)=O)s2)cc1 ?
Result :: 0.70
